# System Tested: human Nav1.6 (hNav1.6) (Homo sapiens, UniProt Q9UQD0)
# Construct: expressed in transfected cells; host or cells: HEK-293 (G418 selection)
# Sequence (Q9UQD0 whole entry): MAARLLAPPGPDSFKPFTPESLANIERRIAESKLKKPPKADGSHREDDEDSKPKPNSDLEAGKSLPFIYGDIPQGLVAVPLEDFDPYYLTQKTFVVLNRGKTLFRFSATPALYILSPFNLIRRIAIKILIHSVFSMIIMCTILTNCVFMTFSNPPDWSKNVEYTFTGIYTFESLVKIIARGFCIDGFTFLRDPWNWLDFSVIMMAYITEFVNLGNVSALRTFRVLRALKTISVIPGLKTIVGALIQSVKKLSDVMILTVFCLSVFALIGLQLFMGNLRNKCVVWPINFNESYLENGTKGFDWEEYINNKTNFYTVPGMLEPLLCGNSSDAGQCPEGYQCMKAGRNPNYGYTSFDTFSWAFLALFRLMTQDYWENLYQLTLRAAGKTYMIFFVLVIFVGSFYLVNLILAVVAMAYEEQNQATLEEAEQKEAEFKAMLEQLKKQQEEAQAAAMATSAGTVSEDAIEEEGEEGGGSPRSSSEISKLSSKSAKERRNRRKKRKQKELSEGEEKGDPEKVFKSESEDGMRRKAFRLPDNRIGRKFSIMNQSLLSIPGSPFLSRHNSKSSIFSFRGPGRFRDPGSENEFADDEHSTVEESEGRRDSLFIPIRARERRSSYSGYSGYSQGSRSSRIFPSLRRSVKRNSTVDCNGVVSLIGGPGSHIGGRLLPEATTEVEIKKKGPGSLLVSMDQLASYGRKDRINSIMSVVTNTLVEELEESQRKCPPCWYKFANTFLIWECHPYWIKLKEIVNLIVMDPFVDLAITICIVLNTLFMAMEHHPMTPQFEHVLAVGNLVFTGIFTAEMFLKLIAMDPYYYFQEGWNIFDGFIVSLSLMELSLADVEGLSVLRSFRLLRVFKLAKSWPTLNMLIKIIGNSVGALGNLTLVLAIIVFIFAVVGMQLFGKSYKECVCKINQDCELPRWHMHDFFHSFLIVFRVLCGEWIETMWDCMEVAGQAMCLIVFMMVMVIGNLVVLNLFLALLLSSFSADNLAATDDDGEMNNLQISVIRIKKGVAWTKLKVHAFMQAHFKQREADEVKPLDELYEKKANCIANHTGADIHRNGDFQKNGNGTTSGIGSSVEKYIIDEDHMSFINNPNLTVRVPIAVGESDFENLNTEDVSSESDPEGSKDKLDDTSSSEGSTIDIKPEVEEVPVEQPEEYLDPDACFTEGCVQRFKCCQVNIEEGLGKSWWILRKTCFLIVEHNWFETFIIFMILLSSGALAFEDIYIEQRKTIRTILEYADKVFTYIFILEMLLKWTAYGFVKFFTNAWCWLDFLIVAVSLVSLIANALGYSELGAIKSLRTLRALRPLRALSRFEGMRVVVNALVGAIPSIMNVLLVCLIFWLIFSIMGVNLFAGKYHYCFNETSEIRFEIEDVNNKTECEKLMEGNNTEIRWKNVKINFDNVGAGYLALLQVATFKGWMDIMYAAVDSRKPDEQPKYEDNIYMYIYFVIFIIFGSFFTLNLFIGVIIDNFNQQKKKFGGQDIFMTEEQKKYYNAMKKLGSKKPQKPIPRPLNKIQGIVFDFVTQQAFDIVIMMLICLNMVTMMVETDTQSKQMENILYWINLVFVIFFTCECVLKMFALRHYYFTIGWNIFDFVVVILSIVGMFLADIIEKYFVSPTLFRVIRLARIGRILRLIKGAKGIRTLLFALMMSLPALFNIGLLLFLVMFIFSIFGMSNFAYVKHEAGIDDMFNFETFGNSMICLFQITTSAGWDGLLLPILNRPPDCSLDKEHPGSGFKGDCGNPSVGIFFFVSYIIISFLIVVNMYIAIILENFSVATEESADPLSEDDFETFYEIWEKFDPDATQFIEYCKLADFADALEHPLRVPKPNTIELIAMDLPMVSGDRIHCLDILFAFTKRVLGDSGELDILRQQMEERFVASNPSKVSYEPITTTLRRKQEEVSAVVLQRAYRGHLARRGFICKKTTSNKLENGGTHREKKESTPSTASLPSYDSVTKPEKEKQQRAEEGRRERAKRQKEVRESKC
# Protocol Summary: Modulation of late sodium current (INaL), PatchXpress electrophysiology
# Format: cell-based
# Condition Notes: HEK293; 1 μM compound; HEK-293 cells expressing recombinant human Nav channel; late current evoked by 300 nM ATX-II; steady-state inhibition; read-out: INaL v1.6 (1 μM, % Inhibition)
Assay Readout: inhibition at 1 µM

{"columns": ["Compound", "inhibition at 1 µM"],
 "data": [
  ["Cc1nnc(Cn2c(=O)oc3ccc(-c4ccc(OC(F)(F)F)cc4)nc32)o1", "30 to 70%"]
]}

Q) For the compound shown here, C[C@@H]1CCCN1C(=O)Cn1c(=O)oc2ccc(-c3ccc(OC(F)(F)F)cc3)nc21 , give the reported inhibition at 1 µM.
A) > 70%

Q) Entry O=c1oc2ccc(-c3ccc(OC(F)(F)F)cc3)nc2n1C[C@@H]1CCCOC1 (single isomer, unassigned) please
A) > 70%

Q) Try C[C@@H](Cn1c(=O)oc2ccc(-c3ccc(OC(F)(F)F)cc3)nc21)c1ncccn1 (single isomer, unassigned) next.
A) 30 to 70%

Q) Okay, and O=c1oc2ccc(-c3ccc(OC(F)(F)F)cc3)nc2n1CCc1cnccn1 ?
A) > 70%

Q) How about this compound: Cn1c(=O)oc2ncc(-c3ccc(OC(F)(F)F)cc3)cc21
A) < 30%

Q) Proceed to O=c1oc2ccc(-c3ccc(OC(F)(F)F)cc3)nc2n1Cc1cn[nH]c1
A) 30 to 70%

Q) Moving on to O=c1oc2ccc(-c3ccc(OC(F)(F)F)cc3)cc2n1CC1CCOC1 (centres unmarked)
A) > 70%

----------
# System Tested: human Nav1.6 (hNav1.6) (Homo sapiens, UniProt Q9UQD0)
# Construct: expressed in transfected cells; host or cells: HEK-293 (G418 selection)
# Protocol Summary: Modulation of late sodium current (INaL), PatchXpress electrophysiology
# Assay type: cell-based
# Condition Notes: HEK293; 1 μM compound; HEK-293 cells expressing recombinant human Nav channel; late current evoked by 300 nM ATX-II; steady-state inhibition; read-out: INaL v1.6 (1 μM, % Inhibition)
Below, each of the compounds is paired with its reported inhibition at 1 µM value.

Completed entries (count: 2):
{"columns": ["Compound", "inhibition at 1 µM"],
 "data": [
  ["C[C@H](O)CCn1c(=O)oc2ccc(-c3ccc(OC(F)(F)F)cc3)nc21 (single isomer, unassigned) [Compound 99]", "> 70%"],
  ["O=C(O)Cn1c(=O)oc2ccc(-c3ccc(OC(F)(F)F)cc3)cc21 [Compound 16]", "< 30%"]
]}

Q) What value of inhibition at 1 µM has been reported for the following compound? Cn1cc(Cn2c(=O)oc3ccc(-c4ccc(OC(F)(F)F)cc4)nc32)cn1 [Compound 151]
A) > 70%

Q) Follow-up entry: COC[C@@H]1CCN(C(=O)Cn2c(=O)oc3ccc(-c4ccc(OC(F)(F)F)cc4)cc32)C1 (single isomer, unassigned) [Compound 138]
A) 30 to 70%

Q) Further, for O=c1[nH]c2cc(-c3ccc(OCC(F)(F)F)nc3)ccc2o1 [Compound 20] ?
A) 30 to 70%

Q) Let us now turn to O=c1oc2ccc(-c3ccc(OC(F)(F)F)cc3)cc2n1C[C@H]1CCOC1 (single isomer, unassigned) [Compound 70]
A) 30 to 70%

Q) Next compound up: [2H]C([2H])([2H])C([2H])([2H])n1c(=O)oc2ccc(-c3ccc(OC(F)(F)F)cc3)nc21 [Compound 91]
A) 30 to 70%

Q) One more compound: O=C1OCCN1CCCn1c(=O)oc2ccc(-c3ccc(OC(F)(F)F)cc3)cc21 [Compound 31]
A) 30 to 70%

Q) Similarly, Cc1nnc(Cn2c(=O)oc3ccc(-c4ccc(OC(F)(F)F)cc4)nc32)s1 [Compound 155] ?
A) > 70%

Q) And what about the compound Cc1nnc(CCn2c(=O)oc3ccc(-c4ccc(OC(F)(F)F)cc4)cc32)o1 [Compound 3] ?
A) > 70%

Q) Check Cc1cc(Cn2c(=O)oc3ccc(-c4ccc(OC(F)(F)F)cc4)nc32)no1 [Compound 156] too.
A) > 70%

Q) One more compound: COC[C@H]1CCN(C(=O)Cn2c(=O)oc3ccc(-c4ccc(OC(F)(F)F)cc4)cc32)C1 (single isomer, unassigned) [Compound 139]
A) 30 to 70%

Q) Entry to check: O=c1oc2ccc(-c3ccc(OC(F)(F)F)cc3)cc2n1CC1CC1 [Compound 12]
A) > 70%

Q) Try this compound too: O=c1oc2ccc(-c3ccc(OC(F)(F)F)cc3)nc2n1Cc1ccncn1 [Compound 141]
A) 30 to 70%

Q) Continue with O=c1oc2ccc(-c3ccc(OC(F)(F)F)cc3)nc2n1CC1COC1 [Compound 102]
A) > 70%

Q) And what about the compound [2H]C([2H])([2H])n1c(=O)oc2ccc(-c3ccc(OC(F)(F)F)cc3)nc21 [Compound 93] ?
A) > 70%

Q) Entry CN(CC(F)(F)F)C(=O)Cn1c(=O)oc2ccc(-c3ccc(OC(F)(F)F)cc3)cc21 [Compound 80] please
A) 30 to 70%

Q) Would you mind doing O=c1oc2ccc(-c3ccc(OC(F)(F)F)cc3)cc2n1Cc1ncccn1 [Compound 50] as well?
A) 30 to 70%

Q) Same again, this time with O=C1Cc2ccc(-c3ccc(OC(F)(F)F)cc3)cc2N1CC(F)(F)F [Compound 4]
A) > 70%
